The reader will find reported z-score values listed item by item below.
- measurement.description: compound effects on differentiated 3T3-L1 adipocyte viability – cell-based, 3T3-L1 adipocytes, calcein-AM fluorescence, 48 h, basal, profiling panel (AID 1163); note: test concentration not given here
- protocol.conditions: 3T3-L1 adipocytes viability, higher = more signal

- compound: "CC(=O)NCCCC[C@@H]1NC(=O)[C@H]2C[C@@H](C(=O)NCCCCCNC(=O)CS)[C@@H](c3ccc(O)cc3)N2C1=O"
  z-score: 0.102
- compound: "CC(C)[Si](C#C[Si](C(C)C)(C(C)C)C(C)C)(O[C@H](C)c1cn(Cc2ccccc2)nn1)C(C)C"
  z-score: -0.425
- compound: "CCCCCN1CC=CC23O[C@@H]4C=CCOC(=O)[C@@H]4[C@H]2C(=O)N(C(C)CO)[C@@H]3C1=O (stereo not given in full)"
  z-score: -0.093
- compound: "CCN(CC)c1ccc(N2CC=CC34O[C@@H]5/C=C\\CCC(C)OC(=O)C5[C@H]3C(=O)N(CCCCCO)[C@@H]4C2=O)cc1 (stereo not given in full)"
  z-score: -0.743
- compound: "CCN(CC)c1ccc(N2CC=CC34O[C@@H]5C=CCOC(=O)[C@@H]5[C@H]3C(=O)N(CCCCCCO)[C@@H]4C2=O)cc1 (stereo not given in full)"
  z-score: 0.839
- compound: "CC(C)(C)OC(=O)CC[C@]1(C(=O)NCCN2CCOCC2)COC(c2ccc(OCCCO)cc2)=N1"
  z-score: -0.555
- compound: "COC(=O)[C@@]1(Cc2ccc(OC)cc2)[C@H]2c3cc(C(=O)N(C)C)n(Cc4ccc(C(F)(F)F)nc4)c3C[C@H]2CN1C(=O)c1ccccc1"
  z-score: -0.624
- compound: "C=C(C)[C@@H]1CC=C(C(O)C2C=CC3C(=O)NC(=O)C3N2Nc2ccc(Cl)cc2Cl)CC1 (stereo not given in full)"
  z-score: 0.641
- compound: "[N-]=[N+]=Nc1ccccc1[C@H]1OC(c2ccc(OCCCO)cc2)=N[C@@]1(CCS(=O)(=O)c1ccccc1)C(=O)NCc1ccccc1"
  z-score: -0.337
- compound: "CC(C)[Si](C#CCCCC#N)(Oc1ccccc1Br)C(C)C"
  z-score: -0.924
- compound: "COC(=O)c1c2oc(c1C(=O)OC)C(=O)NC1(CCCCC1)c1cn(nn1)C[C@H](Cc1ccccc1)NC(=O)N[C@H](CO)CC2"
  z-score: -0.0442
- compound: "COc1ccc(CCNC(=O)[C@@]2(C)c3ccccc3C(=O)N(c3ccc(C)cn3)[C@H]2c2ccc(CO)cc2)cc1"
  z-score: -0.2
- compound: "CC1CC/C=C\\[C@H]2OC34C=CCN(Cn5nnc6ccccc65)C(=O)[C@H]3N(CCCCCO)C(=O)[C@@H]4C2C(=O)O1 (stereo not given in full)"
  z-score: 0.393
- compound: "O=C1O[C@H](c2ccccc2)[C@H](c2ccccc2)N2[C@H]1[C@@H](C(=O)N1CCN(c3ncccn3)CC1)[C@]1(C(=O)Nc3ccc(C#CC4=CCCCC4)cc31)[C@H]2c1ccccc1OCCO"
  z-score: 1.09
- compound: "Cc1ccc(S[C@]2(C(=O)O)CC(=O)N(Cc3ccccc3C(F)(F)F)[C@@H]2c2ccc(CO)cc2I)cc1"
  z-score: -0.217
